# Tested on: HepG2
# Assay Overview: cytotoxicity call (relative viability < 0.9)
# Measurement Conditions: 10 µM
Out of some 39,000 compounds screened, about 3,300 (8.5%) were called active. The list comes from a sample in which actives are over-represented; it also holds close analogues and randomly drawn compounds.
Valid outcomes are listed here; reply with one: yes = active, no = inactive

Inquiry: Any idea what this test logged for `Cc1noc(C)c1S(=O)(=O)N(C)C[C@H]1OCCCC[C@H](C)Oc2ccc(NC(=O)Nc3ccccc3)cc2C(=O)N([C@H](C)CO)C[C@@H]1C` ?
Reply text: no

Inquiry: Any idea what this test logged for `C[C@H](CO)N1C[C@H](C)[C@@H](CN(C)S(=O)(=O)c2ccccc2)OCCCC[C@H](C)Oc2ccc(NC(=O)NC3CCCCC3)cc2C1=O` ?
Reply text: no

Inquiry: Any idea what this test logged for `C[C@H](O)C#Cc1ccc2c(c1)O[C@H](CN(C)C)[C@H](C)CN([C@H](C)CO)S2(=O)=O` ?
Reply text: no

Inquiry: Any idea what this test logged for `C[C@H]1CN([C@@H](C)CO)C(=O)c2cc(NC(=O)Nc3ccccc3)ccc2O[C@H]1CN(C)C(=O)Nc1cccc2ccccc12` ?
Reply text: no

Inquiry: Any idea what this test logged for `COc1ccc(C(=O)NC(CO)(CO)CO)cc1OC` ?
Reply text: no

Inquiry: Any idea what this test logged for `NNc1ccc2nncn2n1` ?
Reply text: no

Inquiry: Any idea what this test logged for `CCOC(=O)[C@@H]1C(Cc2ccccc2)=CN(CCc2ccc(OC)c(OC)c2)C(=O)N1c1ccc(OC)cc1` ?
Reply text: no

Inquiry: Any idea what this test logged for `CNC[C@H]1OCCCC[C@H](C)Oc2ccc(NC(=O)Nc3ccc(C(F)(F)F)cc3)cc2C(=O)N([C@H](C)CO)C[C@@H]1C` ?
Reply text: no

Inquiry: Any idea what this test logged for `C[C@H]1CN([C@@H](C)CO)S(=O)(=O)c2ccc(-c3cccnc3)cc2O[C@H]1CN(C)C(=O)c1ccc2c(c1)OCO2` ?
Reply text: no

Inquiry: Any idea what this test logged for `Nc1ccc(C(=O)O)cc1` ?
Reply text: no

Inquiry: Any idea what this test logged for `CCCC#Cc1cnc2c(c1)C(=O)N([C@@H](C)CO)C[C@@H](C)[C@H](CN(C)C(=O)c1ccc3c(c1)OCO3)O2` ?
Reply text: no

Inquiry: Any idea what this test logged for `COc1ccc(NC(=O)Nc2ccc3c(c2)C(=O)N([C@H](C)CO)C[C@H](C)[C@H](CN(C)S(=O)(=O)c2ccc(OC)cc2)OCCCC[C@@H](C)O3)cc1` ?
Reply text: no

Inquiry: Any idea what this test logged for `CC(C)NC(=O)Nc1ccc2c(c1)C(=O)N([C@@H](C)CO)C[C@H](C)[C@@H](CN(C)C(=O)Nc1ccc(F)cc1)OCCCC[C@H](C)O2` ?
Reply text: no

Inquiry: Any idea what this test logged for `C[C@H](CO)N1C[C@H](C)[C@@H](CN(C)C(=O)Nc2ccc3c(c2)OCO3)Oc2ccc(NC(=O)CCN3CCOCC3)cc2CC1=O` ?
Reply text: no

Inquiry: Any idea what this test logged for `O=C(NCc1nc2ccccc2[nH]1)C1=C[C@H](c2ccc(C(F)(F)F)cc2)C[C@H](OCc2ccc(CO)cc2)O1` ?
Reply text: no

Inquiry: Any idea what this test logged for `C[C@@H]1CN([C@H](C)CO)C(=O)Cc2cc(NS(=O)(=O)c3cccs3)ccc2O[C@H]1CN(C)Cc1ccc(Cl)c(Cl)c1` ?
Reply text: no

Inquiry: Any idea what this test logged for `Cc1ccc(O)cc1` ?
Reply text: no

Inquiry: Any idea what this test logged for `C[C@@H]1CCCCO[C@H](CN(C)C(=O)Nc2cccc3ccccc23)[C@H](C)CN([C@@H](C)CO)C(=O)c2cc(NC(=O)c3ccncc3)ccc2O1` ?
Reply text: no

Inquiry: Any idea what this test logged for `COCC(=O)Nc1ccc2c(c1)OC[C@@H](C)N(Cc1ccccc1F)C[C@H](C)[C@H](OC)CN(C)C2=O` ?
Reply text: no

Inquiry: Any idea what this test logged for `CC(C)NC(=O)N(C)C[C@H]1OCCCC[C@@H](C)Oc2ccc(NC(=O)Nc3ccc(C(F)(F)F)cc3)cc2C(=O)N([C@H](C)CO)C[C@@H]1C` ?
Reply text: no

Inquiry: Any idea what this test logged for `CN1CCN(S(=O)(=O)c2ccc(CN)cc2)CC1` ?
Reply text: no

Inquiry: Any idea what this test logged for `COc1ccc(CN(C)C[C@@H]2OCCCC[C@@H](C)Oc3ccc(NS(=O)(=O)c4c(C)noc4C)cc3C(=O)N([C@H](C)CO)C[C@H]2C)cc1` ?
Reply text: no

Inquiry: Any idea what this test logged for `C[C@@H]1CN([C@@H](C)CO)C(=O)c2cc(NC(=O)CCC(F)(F)F)ccc2O[C@@H]1CN(C)C(=O)Nc1cccc2ccccc12` ?
Reply text: no

Inquiry: Any idea what this test logged for `Cc1cn([C@H]2C[C@H](F)[C@@H](CO)O2)c(=O)[nH]c1=O` ?
Reply text: no

Inquiry: Any idea what this test logged for `COc1ccc(NC(=O)N(C)C[C@@H]2OCCCC[C@H](C)Oc3ccc(NS(=O)(=O)c4ccccc4)cc3C(=O)N([C@@H](C)CO)C[C@@H]2C)cc1` ?
Reply text: no

Inquiry: Any idea what this test logged for `C/C=C/c1ccc2c(c1)O[C@@H](CN(C)C(=O)c1ccc3c(c1)OCO3)[C@H](C)CN([C@H](C)CO)S2(=O)=O` ?
Reply text: no

Inquiry: Any idea what this test logged for `COc1ccccc1NC(=O)N(C)C[C@@H]1OCc2ccccc2-c2c(n(C)c3ccccc23)C(=O)N([C@H](C)CO)C[C@H]1C` ?
Reply text: no

Inquiry: Any idea what this test logged for `CN(C)c1nc2ncnc(N)c2[nH]1` ?
Reply text: no

Inquiry: Any idea what this test logged for `Cc1noc(C)c1S(=O)(=O)N(C)C[C@H]1OCCCC[C@@H](C)Oc2ccc(NC(=O)Nc3ccccc3)cc2C(=O)N([C@@H](C)CO)C[C@@H]1C` ?
Reply text: yes

Inquiry: Any idea what this test logged for `COCC(=O)N1C[C@H](C)[C@H](OC)CN(C)C(=O)c2cc(NC(=O)Nc3cccc(F)c3)ccc2OC[C@@H]1C` ?
Reply text: no

Inquiry: Any idea what this test logged for `COc1ccc(S(=O)(=O)N(C)C[C@@H]2OCCCC[C@H](C)Oc3ccc(NC(=O)Nc4c(C)noc4C)cc3C(=O)N([C@@H](C)CO)C[C@@H]2C)cc1` ?
Reply text: no

Inquiry: Any idea what this test logged for `Nc1cccc(O)c1` ?
Reply text: no

---

# Test system: HepG2
# Assay Overview: cytotoxicity call (relative viability < 0.9)
# Measurement Conditions: 10 µM
Hit rate of the full screen: of about 39,000 compounds, about 3,300 (8.5%) were called active. This excerpt belongs to a sample that is enriched for actives.
Valid outcomes are listed here; reply with one: y (active), n (inactive)

Inquiry: Any idea what this test logged for `C[C@@H]1CCCCO[C@@H](CN(C)Cc2ccc(F)cc2)[C@H](C)CN([C@@H](C)CO)C(=O)c2cc(NC(=O)Nc3ccccc3)ccc2O1` ?
Reply text: n

Inquiry: Any idea what this test logged for `C[C@@H]1CCCCO[C@@H](CN(C)S(=O)(=O)c2ccc(F)cc2)[C@H](C)CN([C@@H](C)CO)C(=O)c2cc(NC(=O)C3CCCCC3)ccc2O1` ?
Reply text: n

Inquiry: Any idea what this test logged for `C[C@@H]1CCCCO[C@@H](CN(C)Cc2ccccc2)[C@H](C)CN([C@H](C)CO)C(=O)c2cc(NC(=O)Nc3ccc(F)cc3)ccc2O1` ?
Reply text: n

Inquiry: Any idea what this test logged for `C[C@@H]1CCCCO[C@@H](CN(C)Cc2ccccc2)[C@@H](C)CN([C@@H](C)CO)C(=O)c2cc(NC(=O)Nc3ccc(F)cc3)ccc2O1` ?
Reply text: n

Inquiry: Any idea what this test logged for `COCC(=O)N1C[C@H](C)[C@H](OC)CN(C)C(=O)c2cc(NC(=O)c3ccc(OC)cc3)ccc2OC[C@@H]1C` ?
Reply text: n

Inquiry: Any idea what this test logged for `CC(C)(C)OC(=O)C[C@H]1C/C=C/CC[C@H](Cc2ccc(F)cc2)C(=O)O[C@H](c2ccccc2)CNC1=O` ?
Reply text: n

Inquiry: Any idea what this test logged for `CCCC/C=C/[C@H]([C@@H](O)Cc1ccccc1)N(CC#Cc1ccccc1)Cc1ccccc1Br` ?
Reply text: n

Inquiry: Any idea what this test logged for `O=C(CN1CCOCC1)NCC[C@@H]1CC[C@@H](NC(=O)c2ccccc2F)[C@@H](CO)O1` ?
Reply text: n

Inquiry: Any idea what this test logged for `Cc1noc(C)c1NC(=O)N(C)C[C@@H]1OCCCC[C@H](C)Oc2ccc(NS(=O)(=O)c3ccccc3)cc2C(=O)N([C@@H](C)CO)C[C@H]1C` ?
Reply text: n

Inquiry: Any idea what this test logged for `C[C@@H]1CN([C@H](C)CO)C(=O)c2cc(NC(=O)Nc3ccc(F)cc3)ccc2O[C@@H](C)CCCCO[C@H]1CN(C)Cc1ccccc1` ?
Reply text: y

Inquiry: Any idea what this test logged for `C[C@@H]1CN([C@@H](C)CO)C(=O)Cc2cc(NS(=O)(=O)c3ccccc3)ccc2O[C@@H]1CN(C)S(C)(=O)=O` ?
Reply text: n

Inquiry: Any idea what this test logged for `C[C@@H]1CN([C@H](C)CO)C(=O)c2cc(NC(=O)Nc3cccc4ccccc34)ccc2O[C@@H](C)CCCCO[C@@H]1CN(C)C(=O)C1CCCCC1` ?
Reply text: n

Inquiry: Any idea what this test logged for `C[C@@H]1CCCCO[C@H](CN(C)Cc2ccccc2)[C@@H](C)CN([C@@H](C)CO)C(=O)c2cc(NC(=O)Nc3ccc(F)cc3)ccc2O1` ?
Reply text: n

Inquiry: Any idea what this test logged for `C[C@@H]1CCCCO[C@H](CN(C)S(=O)(=O)c2cccs2)[C@@H](C)CN([C@H](C)CO)C(=O)c2cc(NS(=O)(=O)c3ccc(Cl)cc3)ccc2O1` ?
Reply text: n

Taken from the antibiotic and cytotoxicity screens of Wong et al. (2023).
